This listing pairs molecules with measured pIC50.
Target: Glycine receptor (alpha-1/beta) (Homo sapiens, UniProt P23415+P48167)
Sequence (P23415 whole entry): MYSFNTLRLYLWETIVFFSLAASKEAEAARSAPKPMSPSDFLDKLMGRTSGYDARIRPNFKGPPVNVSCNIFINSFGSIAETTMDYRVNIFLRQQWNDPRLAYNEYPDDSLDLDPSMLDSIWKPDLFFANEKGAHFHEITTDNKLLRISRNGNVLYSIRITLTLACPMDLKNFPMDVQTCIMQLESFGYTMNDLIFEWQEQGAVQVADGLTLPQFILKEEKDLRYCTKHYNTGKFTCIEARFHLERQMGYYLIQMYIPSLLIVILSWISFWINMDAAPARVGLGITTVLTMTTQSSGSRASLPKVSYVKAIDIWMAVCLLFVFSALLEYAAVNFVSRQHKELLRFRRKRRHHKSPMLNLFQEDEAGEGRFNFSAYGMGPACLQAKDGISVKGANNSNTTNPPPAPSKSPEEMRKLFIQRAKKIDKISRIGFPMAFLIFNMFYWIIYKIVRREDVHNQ
Sequence (P48167 whole entry): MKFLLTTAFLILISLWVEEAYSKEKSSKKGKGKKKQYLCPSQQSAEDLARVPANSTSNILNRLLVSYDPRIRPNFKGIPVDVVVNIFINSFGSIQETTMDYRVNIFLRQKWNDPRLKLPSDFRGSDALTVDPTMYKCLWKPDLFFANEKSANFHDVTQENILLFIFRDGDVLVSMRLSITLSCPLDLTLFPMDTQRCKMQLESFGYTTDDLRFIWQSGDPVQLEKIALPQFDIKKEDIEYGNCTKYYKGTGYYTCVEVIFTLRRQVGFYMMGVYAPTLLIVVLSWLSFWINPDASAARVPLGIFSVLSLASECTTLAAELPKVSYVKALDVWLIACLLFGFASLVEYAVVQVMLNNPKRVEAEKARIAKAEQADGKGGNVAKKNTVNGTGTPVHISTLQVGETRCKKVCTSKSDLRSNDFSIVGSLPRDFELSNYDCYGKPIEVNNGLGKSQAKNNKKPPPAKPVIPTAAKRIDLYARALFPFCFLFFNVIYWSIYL
Assay: Antagonist activity at human glycine receptor subunit alpha-1beta expressed in human tsA201 cells assessed as reduction in glycine-induced response incubated for 30 mins by fluorescence-based FLIPR membrane potential blue assay
Format: cell-based
Details: read-out: IC50
Field pIC50 (float): negative decimal logarithm of the concentration in molar.

- structure_notation: "O=C(CCOCCOCCOCCOCCOCCOCCOCCOCCOCCOCCOCCOCCC(=O)NCCCCCCCCCCC(=O)Nc1ccc2c(c1)[C@@]13CCN4CC5=CCO[C@H]6CC(=O)N2[C@H]1[C@H]6[C@H]5C[C@H]43)NCCCCCCCCCCC(=O)Nc1ccc2c(c1)[C@@]13CCN4CC5=CCO[C@H]6CC(=O)N2[C@H]1[C@H]6[C@H]5C[C@H]43"
  endpoint_result: 5.41

Challenge: Please look at "O=C(CCC(=O)Nc1ccc2c(c1)[C@@]13CCN4CC5=CCO[C@H]6CC(=O)N2[C@H]1[C@H]6[C@H]5C[C@H]43)Nc1ccc2c(c1)[C@@]13CCN4CC5=CCO[C@H]6CC(=O)N2[C@H]1[C@H]6[C@H]5C[C@H]43" and tell me its recorded pIC50 on Glycine receptor (alpha-1/beta) (Homo sapiens, UniProt P23415+P48167).
Response given: 5.00

Challenge: Give pIC50 for "O=C(CCCCCCC(=O)NCC(=O)Nc1ccc2c(c1)[C@@]13CCN4CC5=CCO[C@H]6CC(=O)N2[C@H]1[C@H]6[C@H]5C[C@H]43)NCC(=O)Nc1ccc2c(c1)[C@@]13CCN4CC5=CCO[C@H]6CC(=O)N2[C@H]1[C@H]6[C@H]5C[C@H]43" tested on Glycine receptor (alpha-1/beta) (Homo sapiens, UniProt P23415+P48167).
Response given: 5.62
